Give measured polymerase ribozyme fitness (log ratio) for each item. Keep answers brief.
B1: TPR t1 (parent)
chain: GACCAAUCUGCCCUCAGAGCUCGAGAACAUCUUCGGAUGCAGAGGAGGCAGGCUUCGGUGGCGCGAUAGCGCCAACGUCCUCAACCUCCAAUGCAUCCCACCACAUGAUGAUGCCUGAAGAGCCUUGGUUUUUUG

Variants of: B1
Assay: polymerase ribozyme fitness, log enrichment relative to wild type (log ratio); higher = more active; in vitro selection for triplet polymerase activity

I am curious: what polymerase ribozyme fitness (log ratio) value has been reported for A27C C89U ?
-4.35

Continue with C8A C12U C40A
-0.186

Continue with G63U A90C C101A
-4.63

Continue with C28G G44C G52U C73A G110A
-2.09

Continue with U55C C82G A91C A105U C123G
-6.04

Continue with A16C C53G G63U U132C
-4

Continue with C40A A84G A95C U125G U126G U129A
-4.98

Continue with C56G U125A
-1.54

Continue with A16C A46U G117A U133G
-6.47

Continue with C101U U125A
-0.975

Continue with A50U C101A
-2.09

Continue with A2U A5G U9G C13U C64U G122A
-1.31

Continue with G45U G135U
-2.03

Continue with G36U G48U U78A
-2.21

Continue with G57U C85A
-2.14

Continue with A27U U87C
-2.89

Continue with A2C C13U G110A
-2.59

Continue with G52A U109A
-5.76

Continue with U9G C72G U87G
-0.102

Continue with A100C G120U U125C
-0.56

Measured values drawn from the RNAGym collection of RNA variant scans (doi:10.1073/pnas.2313332121) for this set.
